Readout: melting point

> print(dat)
                                chem.smiles            val
1  CN1C(=O)NC(=O)C1=Cc1cc(OCCCS(=O)(=O)c2ccccc2)ccc1[N+](=O)[O-]  147 to 158 °C
2    COc1cc2c(Cl)c(C#N)cnc2cc1OCC1CCN(C)CC1  166 to 168 °C
3  CCc1nc2c(C)cc(C)nc2n1Cc1ccc2c(c1)c1ccccc1n2CCC#N  180 to 181 °C
4  C=CCC(CC=C)(CC=C)c1ccc(-c2nc3cc4c(cc3n2CCC)C(=N)NC4=N)cc1  230 to 232 °C
5                    Cc1cc(O)c(C)c(C)c1NC=O  219 to 220 °C

----------
Readout: melting point

> print(dat)
                                    molecule        readout            val
 1       CCCCCCOc1ccc(C=CC(C)=CC=CC(=O)O)cc1  melting point  181 to 185 °C
 2  Cc1nnc(C2CN3CCC2CC3)o1 (stereo unspecified)  melting point  147 to 148 °C
 3                   Clc1ccccc1N=Nc1ncc[nH]1  melting point  173 to 177 °C
 4                         Cc1nc2cccc(N)c2s1  melting point  100 to 101 °C
 5  O=C(Nc1ccc2[nH]c(=O)oc2c1)C(=O)N1CCC(Cc2ccc(F)c(F)c2)CC1  melting point         233 °C
 6     COC(=O)C(C)(C)n1c(=O)[nH]c2ccccc2c1=O  melting point  158 to 159 °C
 7  Cn1c2c(c3ccccc31)Cc1c(CO)c(CO)c(-c3ccc(Cl)cc3)n1C2  melting point  238 to 239 °C
 8  N#Cc1cc2c(cc1F)OCC21C(=O)N(Cc2ccccn2)c2ccccc21 (stereo unspecified)  melting point  108 to 109 °C
 9  CC(C)(CCl)C(O)C(Oc1ccc(Cl)cc1)n1ccnc1 (stereo unspecified)  melting point  120 to 125 °C
10  COC(=O)c1ccccc1NC(C#N)c1ccc(Br)cc1 (stereo unspecified)  melting point         112 °C
11  O=C(Oc1ccccc1)c1cc2ccc3c4cc(F)ccc4[nH]c3c2cc1O  melting point  289 to 290 °C
12  COc1c(C)c(C)cc(C)c1C(O)(c1ccc(C)cc1)C(C)C (stereo unspecified)  melting point  103 to 104 °C
13  O=C1Nc2ccc([N+](=O)[O-])cc2C2(c3ccccc3)OCCN12 (stereo unspecified)  melting point  275 to 276 °C
14  COc1ccc2c(c1)c(Cc1cc(=O)n(C3CCCCC3)[nH]1)c(C)n2C(=O)c1ccc(Cl)c(Cl)c1  melting point  104 to 107 °C
15  COCCN1CCc2ccc(Nc3ncc(Cl)c(Nc4ccccc4C(=O)NCC(C)C)n3)cc2CC1  melting point  178 to 181 °C
16                         COc1cccc2c1CCNCC2  melting point  44.3 to 45 °C
17  CC(C)Cn1c(=O)n(C)c(=O)c2c(SCCCC(=O)O)n(Cc3cccc4ccccc34)nc21  melting point         149 °C
18  Nc1ccc(Oc2ccc(P(=O)(c3ccccc3)c3ccccc3)c(Oc3ccc(N)cc3)c2)cc1  melting point  272 to 275 °C
19  COC(=O)[C@@H]1C[C@H](NS(=O)(=O)c2ccccc2)C(=O)[C@H]2[C@@]1(C)CC[C@H]1C(=O)O[C@H](c3ccoc3)C[C@]21C  melting point  271 to 273 °C
20  CNS(=O)(=O)c1cc(C(=O)OC)cc(N2CCCC2)c1Oc1ccccc1  melting point  138 to 139 °C
21                      CSc1cn(C)c2sccc2c1=O  melting point  138 to 140 °C

Values from a melting point compilation (Tetko et al.; mined from patent text by program, amines drawn as free bases though some values may be those of a salt)
